Molecular target: Ephrin type-B receptor 6 (Homo sapiens, UniProt O15197); also: in the data inactive means no Kd found up to 30 µM
Sequence (O15197 whole entry): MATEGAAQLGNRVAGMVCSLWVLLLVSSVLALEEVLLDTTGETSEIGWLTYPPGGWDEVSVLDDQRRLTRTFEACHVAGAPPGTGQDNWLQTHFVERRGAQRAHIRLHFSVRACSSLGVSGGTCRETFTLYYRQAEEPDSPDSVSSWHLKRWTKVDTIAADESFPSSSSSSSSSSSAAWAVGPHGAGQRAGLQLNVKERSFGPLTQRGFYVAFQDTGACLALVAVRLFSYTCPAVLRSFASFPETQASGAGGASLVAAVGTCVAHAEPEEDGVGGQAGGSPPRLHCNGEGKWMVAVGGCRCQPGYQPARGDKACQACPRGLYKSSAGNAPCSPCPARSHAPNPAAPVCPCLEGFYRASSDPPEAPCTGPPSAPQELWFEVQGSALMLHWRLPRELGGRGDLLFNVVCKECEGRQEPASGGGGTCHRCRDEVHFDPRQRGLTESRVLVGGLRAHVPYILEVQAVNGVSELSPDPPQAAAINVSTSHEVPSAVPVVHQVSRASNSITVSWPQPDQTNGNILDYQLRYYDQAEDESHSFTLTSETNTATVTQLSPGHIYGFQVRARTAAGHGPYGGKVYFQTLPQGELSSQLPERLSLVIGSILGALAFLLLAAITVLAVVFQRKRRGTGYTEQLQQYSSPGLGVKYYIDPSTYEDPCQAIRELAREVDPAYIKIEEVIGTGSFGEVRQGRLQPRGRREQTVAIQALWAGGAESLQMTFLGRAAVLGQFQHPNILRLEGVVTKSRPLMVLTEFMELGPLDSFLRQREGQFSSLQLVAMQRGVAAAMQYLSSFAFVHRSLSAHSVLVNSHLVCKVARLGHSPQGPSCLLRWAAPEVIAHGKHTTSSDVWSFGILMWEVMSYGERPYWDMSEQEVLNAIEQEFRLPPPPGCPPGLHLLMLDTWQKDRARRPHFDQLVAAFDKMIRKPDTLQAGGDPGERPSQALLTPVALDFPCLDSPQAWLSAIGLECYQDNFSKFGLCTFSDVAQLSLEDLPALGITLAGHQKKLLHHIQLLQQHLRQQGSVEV
Active and inactive are the calls of the source.
Entry note: the call must match one of Yes (active), No (inactive)

Record excerpt, results attached:
structure-notation	assigned-class
C[C@@H]1CN(Cc2ccc(F)cc2)[C@@H](C)CN1C(=O)c1cc2c(C(=O)C(=O)N(C)C)cn(C)c2cc1Cl	No
CN1CCC(COc2cnc(-c3cccc(Cn4nc(-c5cccc(C#N)c5)ccc4=O)c3)nc2)CC1	No
CC[C@H](Nc1ncnc2[nH]cnc12)c1nc2cccc(F)c2c(=O)n1-c1ccccc1	No

Q: Status in this test for `CNC(=O)c1ccc(-c2cnc3ncc(Cc4ccc5ncccc5c4)n3n2)cc1F` ?
A: No

Q: Status in this test for `CNC(=O)CN1CCC(Oc2cc3c(Nc4cccc(Cl)c4F)ncnc3cc2OC)CC1` ?
A: No

Q: Status in this test for `CCCS(=O)(=O)Nc1ccc(F)c(C(=O)c2c[nH]c3ncc(-c4ccc(Cl)cc4)cc23)c1F` ?
A: No

Q: Status in this test for `Cc1cc(-c2cc(O)ccc2Cl)cc2nnc(Nc3ccc(OCCN4CCCC4)cc3)nc12` ?
A: Yes

Q: Status in this test for `CN1CCC(CNc2ccc3ncc(-c4cccc(OC(F)(F)F)c4)n3n2)CC1` ?
A: No

Q: Status in this test for `Cc1ccc(S(=O)(=O)Nc2nc3ccccc3nc2Nc2ccc3nsnc3c2)cc1` ?
A: No

Q: Status in this test for `Cc1cc(Nc2cc(N3CCN(C)CC3)nc(/C=C/c3ccccc3)n2)n[nH]1` ?
A: No

Q: Status in this test for `CNS(=O)(=O)Nc1nccc(Cc2c(C)c3ccc(Oc4ncccn4)cc3oc2=O)c1F` ?
A: No
